Origin of measurements: patent US11590089B2

Each entry below lists one item and its recorded β-arrestin-2 recruitment β1-AR Emax value.
target: β1-AR (Homo sapiens, UniProt P08588); test: β-arrestin-2 recruitment assay at β1-AR; assay type: cell-based; conditions: relative to norepinephrine
Sequence (P08588 whole entry): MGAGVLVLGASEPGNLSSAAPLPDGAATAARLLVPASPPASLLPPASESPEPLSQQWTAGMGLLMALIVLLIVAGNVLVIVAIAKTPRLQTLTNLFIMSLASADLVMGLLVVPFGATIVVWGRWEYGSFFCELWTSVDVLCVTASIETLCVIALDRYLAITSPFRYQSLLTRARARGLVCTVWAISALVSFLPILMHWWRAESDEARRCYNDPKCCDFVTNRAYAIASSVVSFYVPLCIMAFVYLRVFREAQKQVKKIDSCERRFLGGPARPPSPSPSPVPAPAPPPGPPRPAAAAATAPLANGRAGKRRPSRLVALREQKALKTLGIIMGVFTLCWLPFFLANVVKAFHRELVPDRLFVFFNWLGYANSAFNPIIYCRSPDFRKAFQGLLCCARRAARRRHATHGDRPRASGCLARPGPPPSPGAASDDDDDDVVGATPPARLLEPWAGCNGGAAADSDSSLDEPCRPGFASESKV
Sequence (P32121 whole entry partner): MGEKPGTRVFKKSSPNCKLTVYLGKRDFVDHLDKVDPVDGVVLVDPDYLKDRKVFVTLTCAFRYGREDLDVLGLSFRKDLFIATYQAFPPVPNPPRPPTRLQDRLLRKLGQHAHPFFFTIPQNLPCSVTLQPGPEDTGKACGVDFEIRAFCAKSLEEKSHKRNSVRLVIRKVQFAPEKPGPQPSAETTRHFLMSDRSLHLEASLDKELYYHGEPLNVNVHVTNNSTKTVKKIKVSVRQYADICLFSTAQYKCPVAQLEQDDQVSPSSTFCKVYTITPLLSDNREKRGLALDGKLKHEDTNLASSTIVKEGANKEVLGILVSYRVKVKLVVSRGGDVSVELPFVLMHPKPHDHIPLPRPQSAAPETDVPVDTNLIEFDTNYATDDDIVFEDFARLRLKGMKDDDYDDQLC

Record Oc1ccc2c(c1O)CC[C@@H](NCC1CCC1)[C@@H]2O . Reported β-arrestin-2 recruitment β1-AR Emax: 25 % norepinephrine

* * *

biological target: β1-AR (Homo sapiens, UniProt P08588); experiment: β-arrestin-2 recruitment assay at β1-AR; format: cell-based; conditions: n.d. = could not be determined because of lack of activity; ranges from screening experiments with a low number of repeats; read-out: β-arrestin-2 recruitment β1-AR EC50
Each entry below lists one item and its recorded EC50 value.

// solved cases for EC50 follow
INSERT INTO results (compound, measured_result) VALUES
  ('COCC(COC)N[C@@H]1CCc2c(ccc(O)c2O)[C@H]1O [LM 114]', '30 to 60 µM'),
  ('CC(C)(C)CN[C@@H]1CCc2c(ccc(O)c2O)[C@H]1O [LM 117]', '10 to 20 µM'),
  ('Oc1ccc2c(c1O)CC[C@@H](NCC1CC(F)(F)C1)[C@@H]2O [LM 112]', '6 to 14 µM'),
  ('C[Si](C)(C)CN[C@@H]1CCc2c(ccc(O)c2O)[C@H]1O [LM 118]', '25 to 70 µM');

Record Oc1ccc2c(c1O)CC[C@@H](NC1COC1)[C@@H]2O [LM 113] . Reported EC50: > 100 µM
